Please go through the items and note down their AC26.
Test system: D54 ERlucT glycosylation luciferase reporter, luminescence, 24 h
method description: N-linked glycosylation inhibitors, luciferase reporter, dose response, D54 ERlucT cells, luminescence, cherry-picks (AID 624491);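 further: signal gain reflects blocked N-linked glycosylation of a luciferase reporter; actives raise luciferase signal so AC26 marks activators of the reporter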

Look over these answered cases.
molecule: COc1ccccc1N1CCN(S(=O)(=O)CCNC(=O)c2cc(OC)c(OC)c(OC)c2)CC1
AC26: 3850 nM
//
molecule: COc1ccccc1-c1csc(C(NC(C)=O)c2ccccc2)n1 (stereo not given)
AC26: < 1.2 nM
//
molecule: CC#CCN1c2ccccc2[C@]23C[C@@H](C(=O)OC)N(C(=O)c4cc(C)oc4C)C2=NC(C(=O)OC)=C(C(=O)OC)[C@H]13
AC26: 1790 nM

// input: 3 molecules below; output: AC26 for each
1. CC(O)CN=c1cc(-c2ccccc2)oc2ccc(Cl)cc12 (stereo not given)
2. Cc1ccc(NC(=O)c2ncn(CCCNCc3ccccc3)n2)cc1C
3. CNc1ccc(Br)cc(C(=O)/C=C/c2ccc(Cl)cc2Cl)c1=O

Found:
1: 1150 nM; 2: 800 nM; 3: 8890 nM

// input: 4 molecules below; output: AC26 for each
1. COc1cccc(N2CCN(C(=O)c3ccc(CS(=O)c4ccc(C)cc4)o3)CC2)c1 (stereo not given)
2. COc1ccc(N/C=C/C(=O)c2cc(OC)c(OC)c(OC)c2)cc1
3. COc1cc(-c2nccc3cc4c(cc23)OCO4)cc(OC)c1OC
4. Cc1ccc(S(=O)(=O)Cc2ccc(C(=O)N3CCN(c4cccc(C)c4C)CC3)o2)cc1

Found:
1: 110 nM; 2: 28.7 nM; 3: 1490 nM; 4: 3450 nM

----------
Please go through the items and note down their AC26.
Tested on: D54 ERlucT glycosylation luciferase reporter, luminescence, 24 h
method description: N-linked glycosylation inhibitors, luciferase reporter, dose response, D54 ERlucT cells, luminescence, cherry-picks (AID 624491);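 further: signal gain reflects blocked N-linked glycosylation of a luciferase reporter; actives raise luciferase signal so AC26 marks activators of the reporter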

Look over these answered cases.
compound: CC(C)n1c(/C=C/[C@H](O)C[C@H](O)CC(=O)O)c(-c2ccc(F)cc2)c2ccccc21
target or system: D54 ERlucT glycosylation luciferase reporter, luminescence, 24 h
AC26: 77.8 nM
--
compound: COc1cccc(OCc2nc3ncc(Br)cc3[nH]2)c1
target or system: D54 ERlucT glycosylation luciferase reporter, luminescence, 24 h
AC26: 1810 nM

// input: 4 compounds below; output: AC26 for each
1. O=C1Cc2c([nH]c3ccc(Br)cc23)-c2ccccc2N1
2. CC(=O)Nc1ccc(Nc2ccc3c4c(cc(=O)n3C)-c3ccccc3C(=O)c24)cc1
3. O=c1cc(-c2ccccc2)[nH]c2ccccc12
4. COc1cc2c(cc1OC)C(c1ccccc1)N(C(=O)c1ccccc1F)CC2 (stereo unspecified)

Found:
1: 351 nM; 2: 730 nM; 3: 433 nM; 4: 1100 nM

----------
Please go through the items and note down their AC26.
Test system: D54 ERlucT glycosylation luciferase reporter, luminescence, 24 h
method description: N-linked glycosylation inhibitors, luciferase reporter, dose response, D54 ERlucT cells, luminescence, cherry-picks (AID 624491);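 further: signal gain reflects blocked N-linked glycosylation of a luciferase reporter; actives raise luciferase signal so AC26 marks activators of the reporter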

Look over these answered cases.
molecule: Cc1ccc(-c2nn3c(C)nnc3c3ccccc23)cc1S(=O)(=O)NC(C)(C)CO
AC26: 826 nM

molecule: Cc1ccc(C(=O)N/C(=C/c2ccco2)C(=O)NCCc2c[nH]c3ccccc23)cc1
AC26: 2670 nM

molecule: CC(/C=N/NC(=O)c1cc(-c2ccc(C)s2)[nH]n1)=C\c1ccccc1
AC26: 650 nM

molecule: C=CCn1c(SCc2c(C)noc2C)nc2sc3c(c2c1=O)CCC(C)C3 (stereo not given)
AC26: 2060 nM

As a next step, examine the molecule that follows.
For this molecule ( COc1cc2c(C#CCCO)c(-c3ccsc3)oc(=O)c2cc1OC ), measured AC26 is 226 nM

These measurements were taken from PubChem BioAssay AID624491.
